Biological target: I2′H (MtCYP81E7) (Medicago truncatula, UniProt Q6WNR0)
Construct: The open reading frame of MtCYP81E7 was amplified with forward primer; made in house; host or cells: Saccharomyces cerevisiae WAT11, vector YeDP60; microsomal fraction
Test: Hydroxylase assay with yeast microsomes expressing recombinant MtCYP81E7 (I2′H)
Assay type: biochemical
Measured metric: Activity of MtI2′H with substrate (in words)

COc1ccc(-c2coc3cc(O)ccc3c2=O)c(O)c1 [2′-Hydroxyformononetin]
negligible activity
O=c1c(-c2ccc(O)cc2)coc2cc(O)ccc12 [Daidzein, 7,4′-dihydroxyisoflavone]
weak activity
O=c1c(-c2ccc(O)cc2)coc2cc(O)cc(O)c12 [Genistein, 5,7,4′-trihydroxyisoflavone]
weak activity
COc1ccc(-c2coc3cc(O)ccc3c2=O)cc1O [3′-Hydroxyformononetin]
negligible activity

----------
Biological target: I3′H (MtCYP81E9) (Medicago truncatula, UniProt Q6WNQ9)
Construct: made in house; host or cells: Saccharomyces cerevisiae WAT11, vector YeDP60; microsomal fraction
Assay: Hydroxylase assay with yeast microsomes expressing recombinant MtCYP81E9 (I3′H)
Format: biochemical
Conditions: isoflavone 40 μM; 100% = biochanin A; a = sum of putative 2′ and/or 3′-hydroxylated products; b = sum of all the products; ND = activities not detectable
Item-by-item account of Substrate specificity of I3′H (MtCYP81E9), relative activity
Only the number, expressed in %^a, is required.

// known answers, use as guide
O=c1c(-c2ccc(O)cc2)coc2cc(O)cc(O)c12 [Genistein, 5,7,4′-trihydroxyisoflavone]
19.13
O=c1c(-c2ccc3c(c2)OCO3)coc2cc(O)ccc12
7.6

I looked up O=c1c(-c2ccc(O)cc2)coc2cc(O)ccc12 [Daidzein, 7,4′-dihydroxyisoflavone] and its Substrate specificity of I3′H (MtCYP81E9), relative activity for I3′H (MtCYP81E9) (Medicago truncatula, UniProt Q6WNQ9) was 1.73

----------
Molecular target: I3′H (MtCYP81E9) (Medicago truncatula)
Construct: made in house; host or cells: Saccharomyces cerevisiae WAT11, vector YeDP60; microsomal fraction
Sequence (Q6WNQ9 with tags, fused parts or gaps limits assumed): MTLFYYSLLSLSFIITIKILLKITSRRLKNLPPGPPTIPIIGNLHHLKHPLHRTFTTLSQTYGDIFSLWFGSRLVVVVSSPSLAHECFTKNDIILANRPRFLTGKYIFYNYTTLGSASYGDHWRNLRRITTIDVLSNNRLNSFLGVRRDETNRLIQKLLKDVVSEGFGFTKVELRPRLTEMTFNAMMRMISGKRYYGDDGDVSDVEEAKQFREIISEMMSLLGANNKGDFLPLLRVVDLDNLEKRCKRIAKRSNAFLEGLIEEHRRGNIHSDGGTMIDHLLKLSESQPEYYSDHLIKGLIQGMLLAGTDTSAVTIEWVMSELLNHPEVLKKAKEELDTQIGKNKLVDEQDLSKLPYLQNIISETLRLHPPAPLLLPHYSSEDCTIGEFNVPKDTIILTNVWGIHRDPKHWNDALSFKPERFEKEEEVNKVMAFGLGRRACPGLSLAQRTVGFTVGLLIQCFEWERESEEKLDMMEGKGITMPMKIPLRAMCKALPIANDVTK
Test: Hydroxylase assay with yeast microsomes expressing recombinant MtCYP81E9 (I3′H)
Type: biochemical
Measured metric: Activity of MtI3′H with substrate (in words)

O=c1c(-c2ccc3c(c2)OCO3)coc2cc(O)ccc12 [Pseudobaptigenin]
low activity
O=c1c(-c2ccc(O)cc2)coc2cc(O)ccc12 [Daidzein, 7,4′-dihydroxyisoflavone]
low activity

----------
Biological target: I2′H (MtCYP81E7) (Medicago truncatula, UniProt Q6WNR0)
Construct: The open reading frame of MtCYP81E7 was amplified with forward primer; made in house; host or cells: Saccharomyces cerevisiae WAT11, vector YeDP60; microsomal fraction
Sequence (Q6WNR0 1-498): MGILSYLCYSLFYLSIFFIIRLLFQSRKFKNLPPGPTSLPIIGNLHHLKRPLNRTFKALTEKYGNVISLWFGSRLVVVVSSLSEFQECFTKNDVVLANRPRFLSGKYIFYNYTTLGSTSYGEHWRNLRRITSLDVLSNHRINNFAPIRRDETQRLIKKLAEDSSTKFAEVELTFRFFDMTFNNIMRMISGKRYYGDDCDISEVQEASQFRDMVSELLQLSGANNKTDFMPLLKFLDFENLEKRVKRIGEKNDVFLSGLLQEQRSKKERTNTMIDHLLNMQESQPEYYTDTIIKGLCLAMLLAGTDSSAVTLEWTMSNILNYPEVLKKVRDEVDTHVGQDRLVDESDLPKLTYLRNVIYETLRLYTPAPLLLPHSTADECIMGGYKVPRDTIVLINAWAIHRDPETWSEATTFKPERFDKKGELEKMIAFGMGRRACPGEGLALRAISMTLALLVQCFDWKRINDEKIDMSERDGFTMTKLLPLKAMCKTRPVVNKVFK
Assay: Hydroxylase assay with yeast microsomes expressing recombinant MtCYP81E7 (I2′H)
Assay type: biochemical
Conditions: isoflavone 40 μM; 100% = biochanin A; a = sum of putative 2′ and/or 3′-hydroxylated products; ND = activities not detectable
Listed here: items and their measured Substrate specificity of I2′H (MtCYP81E7), relative activity.
Note: unit %^a is implicit; provide only the numeric part.

O=c1c(-c2ccc(O)cc2)coc2cc(O)cc(O)c12 [Genistein, 5,7,4′-trihydroxyisoflavone]
10.2
COc1ccc(-c2coc3cc(O)ccc3c2=O)c(O)c1 [2′-Hydroxyformononetin]
9.1

Continue with the next molecule.
Documented Substrate specificity of I2′H (MtCYP81E7), relative activity of O=c1c(-c2ccc(O)cc2)coc2cc(O)ccc12 [Daidzein, 7,4′-dihydroxyisoflavone] : 18.6

----------
Quick list: Substrate specificity of I3′H (MtCYP81E9), relative activity per entry.
Target: I3′H (MtCYP81E9) (Medicago truncatula, UniProt Q6WNQ9)
Construct: made in house; host or cells: Saccharomyces cerevisiae WAT11, vector YeDP60; microsomal fraction
Experiment: Hydroxylase assay with yeast microsomes expressing recombinant MtCYP81E9 (I3′H)
Format: biochemical
Conditions: isoflavone 40 μM; 100% = biochanin A; a = sum of putative 2′ and/or 3′-hydroxylated products; b = sum of all the products; ND = activities not detectable
Experimental: PCR products were digested with BamHI and KpnI and ligated into the yeast expression vector YeDP60 following BamHI/KpnI digestion. MtCYP81E8 was directly excised from the original clone in pBSK(+) by BamHI and KpnI and inserted into YeDP60. […] Reaction products from enzyme assays (30 μl) were analyzed by HPLC. Product identification was firstly based on comparisons of chromatographic behavior and UV spectra with authentic standards. […] Mass spectra were recorded over a range of 50-2200 m/z.
Report the value in % with no unit label.

COc1ccc(-c2coc3cc(O)ccc3c2=O)cc1 [Formononetin, 7-hydroxy, 4′-methoxyisoflavone]
50

Record COc1ccc(-c2coc3cc(O)cc(O)c3c2=O)cc1 ; system I3′H (MtCYP81E9) (Medicago truncatula, UniProt Q6WNQ9); Substrate specificity of I3′H (MtCYP81E9), relative activity = 100
